System: MCF7 breast
Assay: NCI-60 one-dose screen, 48 h (100 = growth as untreated, 0 = no growth, -100 = all killed)
Settings: 10 µM
Description: Growth inhibition of the MCF7 human tumor cell line is measured as a screen for anti-cancer activity. Cells are grown in 96 well plates and exposed to the test compound for 48 hours. Compounds are tested at a single concentration, which is 10^-5 M for most compounds. The reported endpoint is percent growth (GI% or GIPRCNT), where numbers from 0 - 100% represent growth inhibition, and numbers from -100% - 0 represent cell death. For example, a value of 40 represents 60% growth inhibition. […]
This is part of a sample that, as a whole, favours compounds with a hit. Of some 83,000 tested, about 20% had one in any assay.
Label Condition met when growth is strictly below 40%; at or above that, label Condition not met.

Item CC(=O)Nc1ccc(-c2cn(-c3cccc(C(=O)Nc4cc(C(F)(F)F)cc(C(F)(F)F)c4)c3)nn2)cn1 : growth beneath 40%, strictly? Condition met

Record: C=C(C)[C@@H]1CC[C@]2(C)[C@H](CC=C3[C@@H]4CC(C)(C)CC[C@]4(C(=O)N4CCOCC4)CC[C@]32C)[C@@]1(C)CCCN Condition met

Record: N#Cc1c(NC(=O)c2cccc(C(F)(F)F)c2)sc2c1CCC(O)=C2 Condition met

Record: O=C1NC(=NC23CC4CC(CC(C4)C2)C3)N/C1=C\c1ccc2ncoc2c1 Condition met

Record: O=S(=O)(Nc1ncccn1)c1ccc(-n2c(-c3ccc(Br)cc3)nc(-c3ccccc3)c2-c2ccccc2)cc1 Condition met

Record: Cc1ccc(/C=C(\C#N)n2nnc3c(F)cccc32)cc1 Condition met

Record: COc1ccc(CN2[C@H](C(=O)NCc3ccc(C(=O)NO)cc3)Cc3c([nH]c4ccccc34)[C@H]2C2CC2)cc1 Condition met

Record: CNCc1cccc2c1OCCCCCC[C@@](C)(O)CC1(CC1)S(=O)(=O)c1ccc(cc1)-c1cnc(N)c(n1)C(=O)N2 Condition met

Record: Cc1ccc(-c2nc3ccc(C(=O)N=Nc4c(O)[nH]c5ccc([N+](=O)[O-])cc45)cc3[nH]2)cc1 Condition not met

Record: COc1ccccc1NCc1ccc(CO)n1-c1ccc(C)cc1 Condition not met

----------
test system: A498 renal; experiment: NCI-60 one-dose screen, 48 h; details: 10 µM
Compounds without any hit were thinned out: in the full panel of roughly 83,000, 20% have a hit. Calls of active or inactive are those of the source. Rule for the calls: active = growth percent below 10; inactive = the rest.
Please state which outcome applies, choosing from true = active, false = inactive

O=C(c1ccc(Cl)cc1)C1[C@H](c2ccc(Br)cc2)[C@@H](c2ccccc2)NC12C(=O)Nc1ccc(Br)cc12 (some centres undefined)
true
OCc1[nH]nc2cc(Nc3ncc4ccc(Br)c(OC5CCC(O)CC5)c4n3)ccc12 (centres undefined)
true
O=c1[nH]c2ccccc2cc1CSc1ccc(Nc2nccc(-c3ccc4ccccc4c3)n2)cc1
false

API: the following record is the query input.
Can you look up the reported call for CCN1CCN(Cc2ccc(NC(=O)c3cccc(-n4cc(-c5ccc(NC(C)=O)nc5)nn4)c3)cc2C(F)(F)F)CC1 for me? false

----------
test system: BT-549 breast; assay: NCI-60 one-dose screen, 48 h; conditions: 10 µM
Compounds without any hit were thinned out: in the full panel of roughly 83,000, 20% have a hit. Active and inactive are the calls of the source. How the source made its calls: active means growth percent below 10; inactive means the rest.
Please state which outcome applies, choosing from active, inactive

COC[C@@H](CC(C)C)N=C1NC(=O)/C(=C/c2ccc3ncsc3c2)N1
active
OCCCNc1oc(-c2ccccc2)nc1[P+](c1ccccc1)(c1ccccc1)c1ccccc1
active
O=S(=O)(c1ccc(Cl)cc1)c1nc(-c2ccccc2)oc1S(=O)(=O)c1ccc(Cl)cc1
inactive
COc1ccc(-c2c(N)c(=O)n(C)c3ccccc23)cc1
inactive
CC(=O)Nc1ccc(-c2cn(-c3cccc(C(=O)Nc4cc(C(F)(F)F)cc(C(F)(F)F)c4)c3)nn2)cn1
active

Can you look up the reported call for Nc1cc(-c2cccc(C(=O)NCc3ccc4c(c3)OCO4)c2)ccn1 for me? inactive

Record: Cn1cc(-c2cc(N)n3nc(-c4c[nH]c5ccc(Br)cc45)cc3n2)c2cccnc21 active

Record: CCCCCCCCCCCCCCCCCCCC(=O)NCCc1c[nH]c2ccc(OC(=O)NOCCOCCOCCOCCOCCOCCOCCOCCOCCOCCOCCOCCOCCOCCOCCOCCOCCOCCOCCOCCOCCOCCOC)cc12 active

Record: N#Cc1c(NC(=O)c2cccc(C(F)(F)F)c2)sc2c1CCC(O)=C2 inactive

Record: COc1ccc(-c2cc(-c3cc(C(=O)c4ccccc4)n4ccc(C)cc34)nc(N)c2C#N)cc1 inactive

Record: Cc1ccc(-c2nc(Nc3ccc(S(N)(=O)=O)cc3)c3ccccc3n2)cc1 inactive

Record: CC(=O)Nc1ccc(-n2cnc3cc(-c4ccc(NS(C)(=O)=O)cc4)ccc32)cc1 inactive

Record: CN1C(=O)N(C)C2SC(N/N=C/c3ccccc3)=NC21 (stereo not drawn) inactive

Record: CCN1CCN(c2ccc(NC(=O)Nc3ccc(-c4cc(C(=O)NC)c5ncccc5n4)cc3)cc2C(F)(F)F)CC1 active

Record: COc1ccc(C(=O)Nc2sc3c(c2C#N)CCC(=O)C3)cc1C(F)(F)F active

Record: C[C@H]1[C@H](C)CC[C@]2(COC(=O)CCC(=O)NCC#CCN3CCNCC3)CC[C@]3(C)C(=CC[C@@H]4[C@@]5(C)CCCNC(C)(C)[C@@H]5CC[C@]43C)[C@H]12 inactive

Record: CN(CCF)c1ccc(/C=C/C(=O)c2ccc(N)cc2O)cc1 inactive

Record: C=C1CCC2C3(C)COC(c4cccc(F)c4)OC3CCC2(C)C1CC(O)C1=CCOC1=O (stereo not drawn) active

----------
system: NCI-H226 lung; test: NCI-60 one-dose screen, 48 h (100 = growth as untreated, 0 = no growth, -100 = all killed); conditions: 10 µM
About 83,000 compounds went through this panel and 20% of them were active in at least one assay; those are over-represented in the sample as a whole.
Label rule met when growth is strictly below 20%; at or above that, label rule not met.

Below are worked cases with known answers.
Cc1ccc(C(=O)CSc2nnc(-c3c[nH]c4ccccc34)n2-c2ccccc2)cc1
rule met
COc1ccc(CN2[C@@H](C(=O)NCc3ccc(C(=O)NO)cc3)Cc3c([nH]c4ccccc34)[C@@H]2C2CC2)cc1
rule not met
Cc1ccc(-c2cc(-c3cc4ccccc4nc3Cl)[nH]c(=S)n2)cc1
rule not met
Cc1cc(=O)oc2cc(OCCCCOc3ccc(/C=C/C(=O)Nc4ccccc4[N+](=O)[O-])cc3)ccc12
rule not met

API: the following record is the query input.
Item Cc1ccc2nc3c(nc2c1)c1cc(I)ccc1n3CCN(C)C : growth beneath 20%, strictly? rule not met

----------
Recorded growth values for a group of compounds are listed next.
system: OVCAR-4 ovarian; experiment: NCI-60 one-dose screen, 48 h (100 = growth as untreated, 0 = no growth, -100 = all killed); conditions: 10 µM
Compounds without any hit were thinned out: in the full panel of roughly 83,000, 20% have a hit.
Please respond with the number in % and leave the unit unwritten.

Recorded growth, per entry:
Cc1nc(Nc2nc(C)c3ccc(OCCN4CCOCC4)cc3n2)[nH]c(=O)c1C
-22.1
CN1CCCN(Cc2ccc(C(=O)Nc3cccc(Nc4ccc5c(O)cccc5n4)c3)cc2C(F)(F)F)CC1
-43.5
Cc1cc(C)cc(Oc2cccc(-c3c(C)nnn3C3CCN(CCN(C)C)CC3)n2)c1
38.9
Clc1ccc2c(N/N=C/c3c[nH]c4ccc(Br)cc34)ccnc2c1
-78.6
O=C(c1ccc(Cl)cc1)C1[C@H](c2ccccc2Br)[C@@H](c2ccccc2)NC12C(=O)Nc1ccccc12 (some centres undefined)
25.9

Which growth value belongs to Cc1cc(=O)oc2cc(OCCCCOc3ccc(/C=C/C(=O)Nc4cccc(Cl)c4)cc3)ccc12 ? -30.5

Record: Nc1n[nH]c2cccc(C#Cc3cccc(NC(=O)Nc4cc(C(F)(F)F)cc(C(F)(F)F)c4)c3)c12 -3.45

Record: O=C(NCCCCCCCCCC[P+](c1ccccc1)(c1ccccc1)c1ccccc1)c1ccc(-n2nc(-c3ccccc3O)nc2-c2ccccc2O)cc1 -51.8

Record: O=C(Cc1ccc2c(c1)CN(C1CCC(=O)NC1=O)C2=O)NCc1cccc2ccccc12 (centres undefined) -2.52

----------
Recorded growth values for a group of compounds are listed next.
tested on: LOX IMVI melanoma; assay: NCI-60 one-dose screen, 48 h (100 = growth as untreated, 0 = no growth, -100 = all killed); settings: 10 µM
The panel holds about 83,000 compounds, 20% with a hit somewhere; the sample as a whole holds those more often. The source made the active and inactive calls. Rule for the calls: active = growth percent below 10; inactive = the rest.

Which growth value belongs to O=c1oc2ccccc2cc1-c1csc(N=Nc2c(O)[nH]c3ccc(Br)cc23)n1 ? 62.8% (inactive)

Record: O=C(NCCCCC(c1ccc(F)cc1)c1ccc(F)cc1)NCCCc1cccnc1 42.5% (inactive)

Record: O=C(CN1CCN(c2ncnc3c2cnn3-c2ccccc2)CC1)Nc1nncs1 -87.4% (active)

Record: O=C1Nc2cc(Cl)ccc2/C1=C/c1cccc(OCc2ccccc2)c1 -82.6% (active)

Record: O=C(NO)c1ccc(-c2nc3ccc4[nH]ncc4c3c3c2CCCC3)cc1 -90.6% (active)

Record: CN(CCF)c1ccc(/C=C/C(=O)c2ccc(N)cc2O)cc1 78.9% (inactive)

Record: CN1CCN(c2ccc(Nc3nc(N4CCN(S(=O)(=O)c5ccc(F)cc5)CC4)c4sccc4n3)cc2)CC1 -91.7% (active)

Record: O=C(NO)c1ccc(Cn2ccc3c(NCc4ccccc4)ncnc32)cc1 -99.6% (active)

Record: Cc1ccc(/C=C/C(=O)c2ccc(S(=O)(=O)NCCNc3nc(Nc4ccc(F)cc4)nc(N(C)C)n3)cc2)cc1 -100% (active)

Record: O=c1[nH]c2ccccc2cc1CSc1ccc(Nc2nccc(-c3ccc(C(F)(F)F)cc3)n2)cc1 15.5% (inactive)
